- experimental_system: HLA-A*02:01 (Homo sapiens, UniProt P04439, D140Y/D185E/D98H/E176V/E277Q/G131W/G231S/I119V/I121R/I166T/I218V/L300P/L318F/N151K/N90K/P208A/P217A/Q86G/Q94H/R138H/R169H/T345S)
- assay: MHC binding assay, UV-ligand exchange ELISA
- measurement_setup: peptide exchange yield, binding to HLA-A*02:01
quantity_name: Peptide exchange

The following substances have reported results that may help.
| substance | Peptide exchange |
| --- | --- |
| 30 (SLKSSILFL; listed as Homo sapiens) [compound 30] | +++ (≥50% = +++) |
| 45 (SLFPISLTV; listed as Homo sapiens) [compound 45] | ++++ (≥75% = ++++) |
| 170 (LLDSWNILI; listed as Homo sapiens) [compound 170] | ++++ (≥75% = ++++) |
| 82 (VLQSLQHEL; listed as Homo sapiens) [compound 82] | ++++ (≥75% = ++++) |
| 57 (IIIDRILLL; listed as Homo sapiens) [compound 57] | ++++ (≥75% = ++++) |
| 97 (ALIVLHLSL; listed as Homo sapiens) [compound 97] | ++ (≥20% = ++) |
| 130 (ITPDSIPSV; listed as Homo sapiens) [compound 130] | +++ (≥50% = +++) |
| 145 (HLFSVLSAI; listed as Homo sapiens) [compound 145] | ++++ (≥75% = ++++) |
| 200 (GLLGTLRVL; listed as Homo sapiens) [compound 200] | ++++ (≥75% = ++++) |
| 106 (GLLDAFLRL; listed as Homo sapiens) [compound 106] | ++++ (≥75% = ++++) |

Requested field: Peptide exchange. Item: 42 (LLSRGILIL; listed as Homo sapiens) [compound 42] ++++ (≥75% = ++++)

Next record, please: 153 (ALNLSRLTV; listed as Homo sapiens) [compound 153] ++++ (≥75% = ++++)

Please do the same for 9 (LLGVVSHSV; listed as Homo sapiens) [compound 9] as well. ++++ (≥75% = ++++)

167 (FALGPIIKQL; listed as Homo sapiens) [compound 167] ? +++ (≥50% = +++)

Please answer likewise for 105 (LVFESVVAA; listed as Homo sapiens) [compound 105] ++++ (≥75% = ++++)
